These entries and their values trace back to patent US10174035B2.

molecular target: recombinant PI3K δ enzyme (Homo sapiens (Human)); experiment: In vitro enzyme assay (Kinase-Glo luminescent kinase assay), PI3Kδ; assay type: biochemical; settings: enzyme 2.29 μg/mL; ATP 10 μM; PIP2 60 μM; 2 hours
Sequence (O00329 whole entry, species assumed): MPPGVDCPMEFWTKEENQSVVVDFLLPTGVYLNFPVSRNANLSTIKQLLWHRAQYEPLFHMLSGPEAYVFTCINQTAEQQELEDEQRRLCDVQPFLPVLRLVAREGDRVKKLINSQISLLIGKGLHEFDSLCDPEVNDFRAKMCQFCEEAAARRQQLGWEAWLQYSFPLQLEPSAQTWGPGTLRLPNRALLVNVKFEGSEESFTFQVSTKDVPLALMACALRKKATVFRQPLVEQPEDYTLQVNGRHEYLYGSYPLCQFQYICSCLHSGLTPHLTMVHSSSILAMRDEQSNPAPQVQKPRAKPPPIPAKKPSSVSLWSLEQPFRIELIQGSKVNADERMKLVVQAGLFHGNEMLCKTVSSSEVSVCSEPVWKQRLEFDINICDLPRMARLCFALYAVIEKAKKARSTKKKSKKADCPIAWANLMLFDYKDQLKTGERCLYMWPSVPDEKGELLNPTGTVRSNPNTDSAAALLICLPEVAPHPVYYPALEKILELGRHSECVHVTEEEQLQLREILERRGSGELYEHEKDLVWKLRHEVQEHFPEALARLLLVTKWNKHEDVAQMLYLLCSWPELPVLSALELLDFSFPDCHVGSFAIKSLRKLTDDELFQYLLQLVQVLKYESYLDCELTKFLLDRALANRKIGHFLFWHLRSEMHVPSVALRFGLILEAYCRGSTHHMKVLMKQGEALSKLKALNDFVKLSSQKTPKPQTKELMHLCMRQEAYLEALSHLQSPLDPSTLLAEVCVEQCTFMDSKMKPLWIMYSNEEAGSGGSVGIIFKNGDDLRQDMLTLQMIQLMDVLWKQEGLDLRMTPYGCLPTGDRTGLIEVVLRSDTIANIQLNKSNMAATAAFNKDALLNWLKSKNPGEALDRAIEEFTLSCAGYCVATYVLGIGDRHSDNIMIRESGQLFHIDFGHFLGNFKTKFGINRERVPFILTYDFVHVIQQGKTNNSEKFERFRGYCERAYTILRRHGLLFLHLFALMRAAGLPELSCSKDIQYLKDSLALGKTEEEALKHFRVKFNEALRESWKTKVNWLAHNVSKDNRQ
Sequence (P27986 whole entry partner, species assumed): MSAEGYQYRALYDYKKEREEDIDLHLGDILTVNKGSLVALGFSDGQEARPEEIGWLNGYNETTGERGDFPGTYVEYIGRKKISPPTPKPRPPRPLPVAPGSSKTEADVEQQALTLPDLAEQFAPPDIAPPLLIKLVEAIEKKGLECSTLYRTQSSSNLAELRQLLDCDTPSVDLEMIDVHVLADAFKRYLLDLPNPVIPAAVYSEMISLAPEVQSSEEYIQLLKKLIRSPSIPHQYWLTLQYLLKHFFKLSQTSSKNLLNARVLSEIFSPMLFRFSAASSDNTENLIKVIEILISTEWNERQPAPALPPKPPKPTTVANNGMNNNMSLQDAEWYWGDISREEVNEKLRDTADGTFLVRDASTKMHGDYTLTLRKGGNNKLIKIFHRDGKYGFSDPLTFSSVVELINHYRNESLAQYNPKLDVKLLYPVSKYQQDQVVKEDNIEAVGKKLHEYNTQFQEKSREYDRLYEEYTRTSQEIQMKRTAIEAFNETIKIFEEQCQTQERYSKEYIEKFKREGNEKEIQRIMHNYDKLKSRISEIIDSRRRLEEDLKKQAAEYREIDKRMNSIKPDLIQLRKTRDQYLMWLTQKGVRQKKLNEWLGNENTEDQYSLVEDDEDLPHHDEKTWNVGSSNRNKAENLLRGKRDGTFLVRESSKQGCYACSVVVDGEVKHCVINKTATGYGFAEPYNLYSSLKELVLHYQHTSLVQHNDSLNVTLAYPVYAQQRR
Some compounds, each annotated with its measured IC50.
Answer with a number only, understood to be in nM.

Below are worked cases with known answers.
Cn1cc(-c2nc(N3CCOCC3)c3nc(C(=O)N4CCC(N5CCOCC5)CC4)[nH]c3n2)cn1 : 14
Cn1cc(-c2nc3[nH]c(C(=O)N4CCC(N5CCOCC5)CC4)nc3c(N3CCOCC3)c2F)cn1 : 6
Cn1cc(-c2nc(N3CCOCC3)c3nc(C(=O)N4CCC5(CC4)COC5)[nH]c3n2)cn1 : 15
Cc1nn(C)cc1-c1nc2[nH]c(C(=O)N3CCC(N(C)C)CC3)nc2c(N2CCOCC2)c1F : 3
Cn1cc(-c2cc(N3CCOCC3)c3nc(C(=O)N4CCC5(CC4)COC5)[nH]c3n2)cn1 : 13
O=C(c1nc2c(N3CCOCC3)nc(-c3c[nH]nc3C(F)(F)F)nc2[nH]1)N1CCC(N2CCOCC2)CC1 : 13

Record summary for Cc1nn(C)cc1-c1cc(N2CCOCC2)c2nc(C(=O)N3CCC(N4CCOCC4)CC3)[nH]c2n1 : reported IC50 = 4

Record summary for Cn1cc(-c2nc(N3CCOCC3)c3nc(C(=O)NCCCN4CCCC4=O)[nH]c3n2)cn1 : reported IC50 = 17

Record summary for CN1CCCC1CCNC(=O)c1nc2c(N3CCOCC3)nc(-c3cnn(C)c3)nc2[nH]1 (stereo not shown) : reported IC50 = 17

Record summary for Cc1nn(C)cc1-c1nc(N2CCOCC2)c2nc(C(=O)N3CCN(C(C)(C)C(N)=O)CC3)[nH]c2n1 : reported IC50 = 10

Record summary for Cc1nn(C)cc1-c1nc2c(nc(C(=O)N3CCC(N4CCOCC4)CC3)n2C)c(N2CCOCC2)c1F : reported IC50 = 3

Record summary for Cn1cc(-c2nc(N3CCOCC3)c3nc(C(=O)NCCCN4CCOCC4)n(C)c3n2)cn1 : reported IC50 = 11

Record summary for Cc1nn(C)cc1-c1nc2[nH]c(C(=O)N3CCC(O)CC3)nc2c(N2CCOCC2)c1F : reported IC50 = 27

Record summary for Cc1nn(C)cc1-c1nc(N2CCOCC2)c2nc(C(=O)N3CCC(N4CCOCC4)CC3)[nH]c2n1 : reported IC50 = 14

----------
test: Solubility in Japanese Pharmacopeia First Fluid (JP1) and Second Fluid (JP2); type: physicochemical; conditions: pH 1.2, simulated gastric fluid, thermodynamic from solid; Japanese Pharmacopeia First Fluid (JP1), room temperature; read-out: Solubility JP1
Endpoint name: solubility at 30 min (µg/mL)
Answer with a number only, understood to be in µg/mL.

Below are worked cases with known answers.
CN(C)C1CCN(C(=O)c2nc3c(N4CCOCC4)c(F)c(-c4cnn(C)c4)nc3[nH]2)CC1 : 816
Cn1cc(-c2cc(N3CCOCC3)c3nc(C(=O)N4CCC(N5CCOCC5=O)CC4)[nH]c3n2)cn1 : 1430
C[C@@H]1CN(C2CCN(C(=O)c3nc4c(N5CCOCC5)nc(-c5cnn(C)c5)nc4[nH]3)CC2)C[C@H](C)O1 : 834
Cn1cc(-c2cc(N3CCOCC3)c3nc(C(=O)N4CCC(N5CCOCC5)CC4)[nH]c3n2)cn1 : 932

# ---- query compound ----
Record summary for Cc1nn(C)cc1-c1cc(N2CCOCC2)c2nc(C(=O)N3CCC(N4CCOCC4)CC3)[nH]c2n1 : reported solubility at 30 min = 808
